Tested on: MDA-MB-435
Experiment: NCI tumour cell line growth inhibition, 48 h
The source made the active and inactive calls. No stated cut-off is given here; in the data, active = GI50 up to about 1.1 µM and inactive = higher. Peptide text beside a SMILES is read from it. * marks the point of attachment. Boc = CC(C)(C)OC(=O)*; OtBu = CC(C)(C)O*
Thanks in advance; please answer with one of these: y for active, n for inactive

CCCCCCc1cc2cc(C(=O)Nc3cccc(F)c3)c(=N)oc2cc1O; n
N#C/C(N)=C(C#N)/N=C/NCCO; n
C(=C\c1cccs1)/c1cccc(/C=C/c2cccs2)n1; n

What was the test verdict on CSC1=C(C#N)C(=S)N=C(N)C1C(=O)Nc1ccc(C)cc1 (stereo not given) ? n

What was the test verdict on COC(=O)c1ccccc1C1CN=NC12Cc1ccccc1C2=O (stereo not given) ? n

What was the test verdict on "Cc1c(C)c2c(c(N)c1C#N)C(=O)N(NC(=O)c1ccccc1)C2=O" ? n

What was the test verdict on "Cc1ccc2c(c1C)-c1c(ccc(C)c1C)C(=O)C2=O" ? y

What was the test verdict on "O=C(O)c1cc(-c2ccc3c(O)ccc(O)c3c2)ccc1O" ? n

What was the test verdict on CC(C)(C)OC(=O)CC(NC(=O)OC(C)(C)C)C(=O)NC(Cc1ccccc1)C(N)=O (stereo not given) (Boc-Asp(OtBu)-Phe-NH2; configuration not given here) ? n

What was the test verdict on COc1ccc(NC(C)=O)cc1N1C(=O)/C(=C\c2cc(OC)c(OC)c(OC)c2)SC1c1ccccc1 (stereo not given) ? n

Where these numbers come from: ChEMBL document CHEMBL1201862
